The measured values listed here are drawn from patent US20260015426A1.

Catalogue of binders with associated Kd
Target: T1, hu-M-IL1RAP construct, positions S21-T367 (extracellular domain of the membrane form of human IL1RAP) (human, UniProt Q9NPH3 21-367)
T1 construct: Biotinylated when captured on the Biacore chip
T1 sequence: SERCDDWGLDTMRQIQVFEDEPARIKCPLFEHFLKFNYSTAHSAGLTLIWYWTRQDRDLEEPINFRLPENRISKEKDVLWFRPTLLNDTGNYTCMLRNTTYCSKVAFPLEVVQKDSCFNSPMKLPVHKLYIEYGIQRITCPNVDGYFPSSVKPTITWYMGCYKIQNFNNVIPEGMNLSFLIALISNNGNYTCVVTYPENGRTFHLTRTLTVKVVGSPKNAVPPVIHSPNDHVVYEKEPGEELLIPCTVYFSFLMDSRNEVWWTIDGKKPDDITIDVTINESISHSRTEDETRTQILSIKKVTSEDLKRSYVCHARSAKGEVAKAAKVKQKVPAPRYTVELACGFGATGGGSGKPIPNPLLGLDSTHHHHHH
Test: SPR, Fab analyte, 25 C

binder: H3 Fab (VH V51S) (Fab, V domains shown, Fab with 8xHis tag) VH: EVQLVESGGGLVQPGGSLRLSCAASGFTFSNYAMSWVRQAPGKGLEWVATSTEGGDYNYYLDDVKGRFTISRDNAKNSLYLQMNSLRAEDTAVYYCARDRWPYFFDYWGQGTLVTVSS VL: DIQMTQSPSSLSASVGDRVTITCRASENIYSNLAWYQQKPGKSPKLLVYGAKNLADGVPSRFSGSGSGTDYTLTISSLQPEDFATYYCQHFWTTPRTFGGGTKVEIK
unitsOfMeasure: nM
Kd: 0.0396
//
binder: K4 Fab (VL W92L) (Fab, V domains shown, Fab with 8xHis tag) VH: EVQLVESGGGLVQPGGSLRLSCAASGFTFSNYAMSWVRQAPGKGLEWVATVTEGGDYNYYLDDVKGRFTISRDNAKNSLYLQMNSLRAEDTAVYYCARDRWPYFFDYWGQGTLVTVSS VL: DIQMTQSPSSLSASVGDRVTITCRASENIYSNLAWYQQKPGKSPKLLVYGAKNLADGVPSRFSGSGSGTDYTLTISSLQPEDFATYYCQHFLTTPRTFGGGTKVEIK
unitsOfMeasure: nM
Kd: 0.147
//
binder: K14 Fab (VL T94I) (Fab, V domains shown, Fab with 8xHis tag) VH: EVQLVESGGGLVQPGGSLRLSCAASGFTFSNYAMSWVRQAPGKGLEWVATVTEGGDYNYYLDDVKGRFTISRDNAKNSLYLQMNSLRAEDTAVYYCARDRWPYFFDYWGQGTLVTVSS VL: DIQMTQSPSSLSASVGDRVTITCRASENIYSNLAWYQQKPGKSPKLLVYGAKNLADGVPSRFSGSGSGTDYTLTISSLQPEDFATYYCQHFWTIPRTFGGGTKVEIK
unitsOfMeasure: nM
Kd: 0.0913
